Experiment: Pharmacokinetic analysis in rats
Assay type: in vivo, Male SD rats
Settings: male, SD, plasma; rat, PO, 5 mg/kg
Answer each item with its documented AUC(0-inf).
Give bare numbers, in ng·h/mL.

> print(dat)
                                   compound    property  experimental.result
1  C[C@H]1COC(=O)c2cnn3ccc(nc23)N[C@H](C)c2cc(F)ccc2O1  AUC(0-inf)                 3550

Okay, next one:
Entry under review: C[C@H]1CNC(=O)c2cnn3ccc(nc23)N[C@H](C)c2cc(F)ccc2O1 [TPX-0005, reference compound] . Reported AUC(0-inf)? 2950
